# Test system: Streptococcus pneumoniae 1175
# Assay type: cell-based
# Protocol conditions: S. pneumoniae 1175 (mefA); microtiter broth dilution
Reported property: MIC S. pneumo. 1175 (µg/mL)
Dear colleague, please return just the value in µg/mL, with no unit written.

Worked examples follow.
Compound	MIC S. pneumo. 1175 [µg/mL]
CC[C@H]1OC(=O)[C@H](C)C(=O)[C@H](C)[C@@H](O[C@@H]2O[C@H](C)C[C@H](N(C)C)[C@H]2O)[C@](C)(OC)C[C@@H](C)C(=O)[C@H](C)[C@H]2N(CC3(O)CN(C(=O)c4ccc5cccnc5n4)C3)C(=O)O[C@]12C [7.17]	0.5
CCC1OC(=O)C(C)C(=O)C(C)C(OC2OC(C)CC(N(C)C)C2O)C(C)(OC)CC(C)C(=O)C(C)C2N(CC3CCN(Cc4cnc(-c5ccccc5)[nH]4)CC3)C(=O)OC12C (stereo not drawn) [15.08]	1
CCC1OC(=O)C(C)C(=O)C(C)C(OC2OC(C)CC(N(C)C)C2O)C(C)(OC)CC(C)C(=O)C(C)C2N(CC3CCCN3C(=O)c3cc4ncccn4n3)C(=O)OC12C (stereo not drawn) [10.53]	0.12
CCC1OC(=O)C(C)C(=O)C(C)C(OC2OC(C)CC(N(C)C)C2O)C(C)(OC)CC(C)C(=O)C(C)C2N(CC3CCCN3C(=O)c3nc4ccncc4[nH]3)C(=O)OC12C (stereo not drawn) [10.24]	1
CC[C@H]1OC(=O)[C@H](C)C(=O)[C@H](C)[C@@H](O[C@@H]2O[C@H](C)C[C@H](N(C)C)[C@H]2O)[C@](C)(OC)C[C@@H](C)C(=O)[C@H](C)[C@H]2N(CC3(O)CN(C(=O)c4ccc5ccccc5n4)C3)C(=O)O[C@]12C [7.22]	0.12

-- ask Which measured MIC S. pneumo. 1175 value corresponds to CCC1OC(=O)C(C)C(=O)C(C)C(OC2OC(C)CC(N(C)C)C2O)C(C)(OC)CC(C)C(=O)C(C)C2N(CC3(O)CN(S(=O)(=O)c4cccc5cccnc45)C3)C(=O)OC12C (stereo not drawn) [7.06] ?
-- reply 0.5

-- ask Which measured MIC S. pneumo. 1175 value corresponds to CC[C@H]1OC(=O)[C@H](C)C(=O)[C@H](C)[C@@H](O[C@@H]2O[C@H](C)C[C@H](N(C)C)[C@H]2O)[C@](C)(OC)C[C@@H](C)C(=O)[C@H](C)[C@H]2N(CC3(O)CN(Cc4cccc5nc[nH]c45)C3)C(=O)O[C@]12C [7.08] ?
-- reply 0.25

-- ask Which measured MIC S. pneumo. 1175 value corresponds to CCC1OC(=O)C(C)C(=O)C(C)C(OC2OC(C)CC(N(C)C)C2O)C(C)(OC)CC(C)C(=O)C(C)C2N(CC3CCN(C(=O)c4cncc5ccccc45)C3)C(=O)OC12C (stereo not drawn) [13.17] ?
-- reply 0.25
